assay: Half life in Sprague-Dawley rat; assay type: ADME, organism-based; settings: in vivo
Measurement Label: half-life (h)

>>> value_observed("CCOP(=O)(Cc1ccc(C(=O)Nc2cc(-c3cccs3)ccc2N)cc1)OCC")
5.5

====

assay: AUC (0 to infinity) in Beagle dog; type: ADME, organism-based, Canis lupus familiaris; parameters: time infinity; conditions: plasma
Measurement Label: AUC(0-inf) (µM·h)

>>> value_observed("CCOP(=O)(Cc1ccc(C(=O)Nc2cc(-c3cccs3)ccc2N)cc1)OCC")
0.25
